Test description: qHTS Assay for Rab9 Promoter Activators; also: nearly all actives have a fitted effect of over 60% in size
Conditions used: Huh7 Rab9 promoter-luciferase reporter, luminescence, 24 h; series mostly up to 9.22 µM
Text: NIH Chemical Genomics Center [NCGC] NIH Molecular Libraries Probe Production centers Network [MLPCN] […] The Rab9 promoter is cloned in front of the luciferase reporter gene, therefore […] promoter activation results in luciferase expression. […] 7.Read using the luminescence protocol on the ViewLux plate reader (Perkin Elmer).
Hit rate of the full screen: of about 320,000 compounds, about 9,100 (2.8%) were called active. About 3% were inconclusive and are not listed. Calls follow the shape of the dose curve; as a rule, active = well fitted activation curve with a large enough effect; inconclusive = small, poorly fitted or top-dose-only effect; inactive = no such curve, though single readings can be large or run the other way. The list comes from a sample in which actives are over-represented; it also holds close analogues and randomly drawn compounds.
Possible outcomes: True = active, False = inactive

>  <Molecule>
O=C(CN1CCCCC1)Nc1ccccc1C(=O)NC1CC1

>  <Class assignment>
False

$$$$
>  <Molecule>
Cc1ccc(NC(=O)CCCNC(=O)c2ccc(Cl)cc2)cc1S(=O)(=O)N1CCOCC1

>  <Class assignment>
False

$$$$
>  <Molecule>
Cc1cnc(NC(=O)C2CCCC2)s1

>  <Class assignment>
False

$$$$
>  <Molecule>
O=C(Nc1nnc(C2CC2)s1)c1cc(Cl)sc1Cl

>  <Class assignment>
False

$$$$
>  <Molecule>
O=C(Nc1nnc(C2CC2)s1)c1ccccn1

>  <Class assignment>
True

$$$$
>  <Molecule>
CC(C)CN(C(=O)CSc1ncnc2sccc12)C1CCS(=O)(=O)C1 (configuration not stated)

>  <Class assignment>
False

$$$$
>  <Molecule>
CN(c1ccccc1)S(=O)(=O)c1ccc(Cl)c(C(=O)NCCc2c[nH]c3ccccc23)c1

>  <Class assignment>
False

$$$$
>  <Molecule>
O=C(OCC(=O)N1CCCCCC1)c1cnc(Cl)c(Cl)c1

>  <Class assignment>
False

$$$$
>  <Molecule>
CCN(CC)c1ccc(NC(=O)c2ccc(Cl)nc2)cc1

>  <Class assignment>
False

$$$$
>  <Molecule>
Cc1cnc(NC(=O)CSc2c(Cl)cccc2Cl)s1

>  <Class assignment>
False

$$$$
>  <Molecule>
CCN(c1ccccc1)S(=O)(=O)c1cccc(C(=O)NCc2ccccc2CN2CCOCC2)c1

>  <Class assignment>
False

$$$$
>  <Molecule>
O=C(NCCc1c[nH]c2ccccc12)c1cc2ccccc2oc1=O

>  <Class assignment>
True

$$$$
